meta.source: patent US20220306762A1

- Target: T1, His-tagged cynomolgus monkey CD38 (ACRO Biosystems cat #CD8-05223) (cynomolgus monkey, UniProt Q5VAN0 43-301)
- T1 construct: bought recombinant protein with His tag
- Assay Overview: ELISA, coated His-CD38
Listed here: items and their measured ELISA 1 ug/ml.
Readout Label: ELISA 1 ug/ml

1. 40769p1.1.A4 (scFv, V domains shown, tested as scFv-Fc supernatant) VH: EVQLLESGGGLVQPGGSLRLSCTASGITFSRFNMFWVRQAPGKGLEFVASIRDDGSWTYYADSVKGRFTISRDNSKNTLYLQMNSLRAEDTAVYYCAKDYNSKDFIYHYVMDVWGQGTTVTVSS VL: QSVLTQPPSASGTPGQRVTISCSGRNSNIGNNVVNWYQQLPGTAPKLLIYKDDQRPSGVPDRFSGSKSGTSASLAISGLQSEDEADYYCSTWDDSLNGWVFGGGTKLTVL :: 1.78
2. 40596p1.A5 (scFv, V domains shown, tested as scFv-Fc supernatant) VH: EVQLLESGGGLVQPGGSLRLSCAASGFDFSNNAMSWVRQAPGKGLEYVAGSGWSGSFIFYADSVKGRFTVSRDNSENTLYLQMNSLRAEDTAVYYCAKNPGFGEMDVWGQGTTVTVSS VL: EIVLTQSPGSLSLSPGERATLRCRASQSIGSNLAWYQQKPGQAPSLLIYGASTRAADIPDRFSGSGSGTEFTLTITSLQSEDFAVYYCQQYNSWPPLTFGGGTKVEIK :: 1.97
3. 40617p1.2.H1 (scFv, V domains shown, tested as scFv-Fc supernatant) VH: EVQLLESGGGLVQPGGSLRLSCAASGFTFTNYWMTWVRQAPGKGLEWVSAISSYGGNYMYYADSVKGRFTISRDNSENTLYLQMNSLRAEDTAVYYCAKDWDDGMDVWGQGTTVTVSS VL: EIVMTQSPAVLSVSPGERATLSCRASQTVGSKLAWYQQKPGQAPRLLIYGVSTRAAGIPDRFSGSGSGTDFTLTISSLQSEDFAVYYCQQYYDLPPYSFGGGTKVEIK :: 1.83
